test system: polymodal nociceptors; assay type: in vivo, Sprague-Dawley rats; conditions: rat, in vivo
reported property: Evan's blue extravasation

COc1cc(CC(=O)OCC2=C[C@H]3[C@@H]4C(C)(C)[C@]4(OC(=O)Cc4ccccc4)C[C@@H](C)[C@]3(O)[C@@H]3C=C(C)C(=O)[C@@]3(O)C2)ccc1O [dPP-HV] | No extravasation
C=C(C)[C@@]12O[C@@]3(c4ccccc4)O[C@@H]1[C@@H]1[C@@H]4O[C@]4(CO)[C@@H](O)[C@]4(O)C(=O)C(C)=C[C@H]4[C@@]1(O3)[C@H](C)[C@H]2OC(=O)/C=C/C=C/c1ccccc1 [Mez, Mezerein] | slight extravasation
CC1=C[C@H]2[C@@]3(O)[C@H](C)C[C@]4(OC(=O)Cc5ccccc5)[C@H]([C@@H]3C=C(CO)C[C@]2(O)C1=O)C4(C)C [dPP, 12-deoxyphorbol 13-phenylacetate] | slight extravasation
C=C(C)[C@@]12O[C@@]3(c4ccccc4)O[C@@H]1[C@@H]1[C@@H]4O[C@]4(COC(=O)Cc4ccc(O)c(OC)c4)[C@@H](O)[C@]4(O)C(=O)C(C)=C[C@H]4[C@@]1(O3)[C@H](C)[C@H]2OC(=O)/C=C/C=C/c1ccccc1 [Mez-HV, Mezerein 20-homovanillate] | No extravasation
